- target.system: IDH1/R132H (Homo sapiens, UniProt O75874, R132H)
- Construct: His-tag (N)
- Sequence (O75874 whole entry R132H): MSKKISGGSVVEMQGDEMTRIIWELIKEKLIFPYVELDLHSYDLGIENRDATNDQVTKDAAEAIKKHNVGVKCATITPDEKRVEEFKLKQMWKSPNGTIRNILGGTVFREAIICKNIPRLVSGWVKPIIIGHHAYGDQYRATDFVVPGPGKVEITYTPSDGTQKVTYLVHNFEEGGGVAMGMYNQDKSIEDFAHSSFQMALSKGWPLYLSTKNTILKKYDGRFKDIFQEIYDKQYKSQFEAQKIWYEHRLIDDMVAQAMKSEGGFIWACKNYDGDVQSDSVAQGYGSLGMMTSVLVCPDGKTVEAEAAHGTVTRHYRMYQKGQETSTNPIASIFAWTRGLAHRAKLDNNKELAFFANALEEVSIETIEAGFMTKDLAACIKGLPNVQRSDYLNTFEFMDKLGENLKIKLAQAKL
- protocol.notes: Biochemical assay for IDH1 R132H mutant enzyme (2HG by RapidFire MS)
- test.conditions: mean ± standard deviation of the mean; 90 minutes reaction
measurement.label: log10 of IC50 (log10 of the value in nM)
In our notation, the value equals log10 of IC50 in nM.

Q) Using the record for C=CC(=O)N1CC(OCc2ccc([C@H](C)Nc3ncc4c(n3)N(CC(C)C)C(=O)OC4)cc2)C1 [Example 13] , report its log10 of IC50.
A) 1.89

Q) Repeat for the following molecule: C=CC(=O)N1CCN(Cc2ccc([C@H](C)Nc3ncc4c(n3)N(CCF)C(=O)OC4)cc2)CC1 [Example 21]
A) 2.51

Q) # repeat for C=CC(=O)N1CC(COc2ccc([C@H](C)Nc3ncc4c(n3)N(C(C)C)C(=O)OC4)cc2)C1 [Example 9]
A) 1.62

Q) Can you handle C=CC(=O)N1CCN(c2ccc([C@H](C)Nc3ncc4c(n3)N(CC)C(=O)OC4)cc2)CC1 [Example 18] next?
A) 2.32

Q) Field entry: C=CC(=O)N1CCC2(CC1)CN(Cc1ccc([C@H](C)Nc3ncc4c(n3)N(C(C)C)C(=O)OC4)cc1)C2 [Example 8]
A) 2.46

Q) Another molecule to check: C=CC(=O)N1CCN(Cc2ccc([C@H](C)Nc3ncc4c(n3)N([C@H](C)CO)C(=O)OC4)cc2)CC1 [Example 11]
A) 1.90

Q) Likewise for C=CC(=O)N1CCC(N(C)Cc2ccc([C@H](C)Nc3ncc4c(n3)N(CC)C(=O)OC4)cc2)CC1 [Example 12] ?
A) 2.71

---

The entries below are paired with their reported pIC50.
- target.system: IDH1/R132H (Homo sapiens, UniProt O75874, R132H)
- Construct: His-tag (N)
- protocol.notes: Biochemical assay for IDH1 R132H mutant enzyme (2HG by RapidFire MS)
- test.conditions: mean ± standard deviation of the mean; 90 minutes reaction
FYI, pIC50 means -log10 of a concentration in mol per litre.

Q) Entry C=CC(=O)N1CC2(CN(Cc3ccc([C@H](C)Nc4ncc5c(n4)N(CC)C(=O)OC5)cc3)C2)C1 : reported pIC50 = ?
A) 7.09

Q) What would you report for C=CC(=O)N1CC(CCc2ccc([C@H](C)Nc3ncc4c(n3)N(CC)C(=O)OC4)cc2)C1 ?
A) 7.40

Q) Next: C=CC(=O)N1CC2(CN(Cc3ccc([C@H](C)Nc4ncc5c(n4)N(CC(C)C)C(=O)OC5)cc3)C2)C1
A) 7.25

Q) Do the same for C=CC(=O)N1CC(OCc2ccc([C@H](C)Nc3ncc4c(n3)N(CC)C(=O)OC4)cc2)C1 please
A) 7.10

---

- target.system: IDH2/R172K (Homo sapiens, UniProt P48735, R172K)
- Construct: His-tag (N)
- Sequence (P48735 40-452 R172K): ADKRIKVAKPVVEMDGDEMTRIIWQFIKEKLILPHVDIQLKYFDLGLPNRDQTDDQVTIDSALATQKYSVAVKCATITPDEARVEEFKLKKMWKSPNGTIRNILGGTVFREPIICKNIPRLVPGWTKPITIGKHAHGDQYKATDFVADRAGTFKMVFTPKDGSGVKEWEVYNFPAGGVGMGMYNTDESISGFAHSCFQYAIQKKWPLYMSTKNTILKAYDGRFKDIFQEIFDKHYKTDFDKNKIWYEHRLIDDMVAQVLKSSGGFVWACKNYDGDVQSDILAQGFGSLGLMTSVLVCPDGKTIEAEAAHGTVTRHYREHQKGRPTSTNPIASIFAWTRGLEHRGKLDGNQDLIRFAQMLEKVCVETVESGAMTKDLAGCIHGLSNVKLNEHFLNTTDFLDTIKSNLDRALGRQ
- protocol.notes: Biochemical assay for IDH2 R172K mutant enzyme (2HG by RapidFire MS)
- test.conditions: mean ± standard deviation of the mean; 90 minutes reaction
measurement.label: pIC50
# pIC50 is unitless: minus log10 of the molar concentration; print number only

C=CC(=O)N1CC2(CN(Cc3ccc([C@H](C)Nc4ncc5c(n4)N(CC)C(=O)OC5)cc3)C2)C1 :: 4.89

Q) Test system IDH2/R172K (Homo sapiens, UniProt P48735, R172K); read-out pIC50; what value for C=CC(=O)N1CCC2(CC1)CN(Cc1ccc([C@H](C)Nc3ncc4c(n3)N(C(C)C)C(=O)OC4)cc1)C2 ?
A) 4.29

Q) Check C=CC(=O)N1CC(COc2ccc([C@H](C)Nc3ncc4c(n3)N(CC)C(=O)OC4)cc2)C1 too.
A) 5.76

Q) What about C=CC(=O)N1CC(CCc2ccc([C@H](C)Nc3ncc4c(n3)N(CC)C(=O)OC4)cc2)C1 ?
A) 6.32

---

- target.system: IDH1/R132H (Homo sapiens, UniProt O75874, R132H)
- Construct: His-tag (N)
- protocol.notes: Biochemical assay for IDH1 R132H mutant enzyme (2HG by RapidFire MS)
- test.conditions: mean ± standard deviation of the mean; 90 minutes reaction
measurement.label: log10 IC50 (log10 of the value in nM)
Recall that a logarithmic scale is used here: each number is log10 of IC50 in nM.

C=CC(=O)N1CCN(Cc2ccc([C@H](C)Nc3ncc4c(n3)N(C(C)C)C(=O)OC4)cc2)CC1 :: 1.46
C=CC(=O)N1CCN(Cc2ccc([C@H](C)Nc3ncc4c(n3)N(CC(F)F)C(=O)OC4)cc2)CC1 :: 2.26
C=CC(=O)N1CCN(Cc2ccc([C@H](C)Nc3ncc4c(n3)N(CC(C)C)C(=O)OC4)cc2)CC1 :: 1.71
C=CC(=O)N1CCN(Cc2ccc([C@H](C)Nc3ncc4c(n3)N(C)C(=O)OC4)cc2)CC1 :: 2.89
C=CC(=O)N1CCN(Cc2ccc([C@H](C)Nc3ncc4c(n3)N(CC)C(=O)OC4)cc2)CC1 [Example 2] :: 2.04

Q) What value of log10 IC50 has been reported for the following molecule? C=CC(=O)N1CCN(c2ccc([C@H](C)Nc3ncc4c(n3)N(C(C)C)C(=O)OC4)cc2)CC1
A) 2.18

Q) Next up: C=CC(=O)N1CCN(Cc2ccc([C@H](C)Nc3ncc4c(n3)N(CC)C(=O)OC4)cc2F)CC1
A) 2.06

Q) Same question for C=CC(=O)N1CC(N(C)Cc2ccc([C@H](C)Nc3ncc4c(n3)N(CC)C(=O)OC4)cc2)C1 please.
A) 2.41

Q) Try the molecule C=CC(=O)N1CC(COc2ccc([C@H](C)Nc3ncc4c(n3)N(CC)C(=O)OC4)cc2)C1
A) 2.06

Q) Another: C=CC(=O)N1CCN(Cc2ccc([C@H](C)Nc3ncc4c(n3)N(CC)C(=O)OC4)cc2)CC1 [Example 23]
A) 2.27

Q) Then what about the molecule C=CC(=O)N1CC2(CN(Cc3ccc([C@H](C)Nc4ncc5c(n4)N(C(C)C)C(=O)OC5)cc3)C2)C1 ?
A) 2.11

---

- target.system: IDH1 Wild-Type (Homo sapiens, UniProt O75874)
- Sequence (O75874 whole entry): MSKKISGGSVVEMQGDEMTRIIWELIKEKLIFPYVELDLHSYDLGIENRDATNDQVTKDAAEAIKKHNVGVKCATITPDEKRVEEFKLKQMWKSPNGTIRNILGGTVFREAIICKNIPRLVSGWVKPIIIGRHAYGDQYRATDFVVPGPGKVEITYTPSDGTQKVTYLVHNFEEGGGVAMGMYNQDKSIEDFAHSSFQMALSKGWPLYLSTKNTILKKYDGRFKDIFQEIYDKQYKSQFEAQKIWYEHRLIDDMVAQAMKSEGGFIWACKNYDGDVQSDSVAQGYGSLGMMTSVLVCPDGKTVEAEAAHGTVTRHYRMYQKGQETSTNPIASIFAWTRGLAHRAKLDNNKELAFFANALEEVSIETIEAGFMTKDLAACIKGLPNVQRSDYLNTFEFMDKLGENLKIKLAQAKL
// reported pIC50 per item
pIC50 is defined as minus the log10 of a concentration measured in mol/L.

Examples with answers:
C=CC(=O)N1CCC2(CC1)CN(Cc1ccc([C@H](C)Nc3ncc4c(n3)N(C(C)C)C(=O)OC4)cc1)C2 [Example 8] :: 4.58
C=CC(=O)N1CCN(Cc2ccc([C@H](C)Nc3ncc4c(n3)N(CC(C)C)C(=O)OC4)cc2)CC1 [Example 3] :: 5.40

Could you now consider this next compound?
Q) What value of pIC50 has been recorded for this entry: C=CC(=O)N1CC(N(C)Cc2ccc([C@H](C)Nc3ncc4c(n3)N(CC)C(=O)OC4)cc2)C1 [Example 10]
A) 4.97

---

- target.system: UniProt P48735
pIC50: −log10 of the molar value.
pIC50 below 5 gives class 0; pIC50 at or above it gives class 1.

C=CC(=O)N1CCN(Cc2ccc([C@H](C)Nc3ncc4c(n3)N(CC)C(=O)OC4)cc2)CC1 :: class 0
C=CC(=O)N1CC(COc2ccc([C@H](C)Nc3ncc4c(n3)N(CC)C(=O)OC4)cc2)C1 :: class 1

We now examine a further compound.
Q) Could you verify whether the entry C=CC(=O)N1CC(OCc2ccc([C@H](C)Nc3ncc4c(n3)N(CC(C)C)C(=O)OC4)cc2)C1 shows pIC50 of no less than 5?
A) class 1

---

Measured pIC50, listed per entry.
- target.system: IDH1 Wild-Type (Homo sapiens, UniProt O75874)
// pIC50 is dimensionless: -log10 of concentration (M)

Please review the following examples before continuing.
C=CC(=O)N1CCN(Cc2ccc([C@H](C)Nc3ncc4c(n3)N(CC)C(=O)OC4)cc2)CC1 [Example 2] :: 5.35
C=CC(=O)N1CC(COc2ccc([C@H](C)Nc3ncc4c(n3)N(C(C)C)C(=O)OC4)cc2)C1 [Example 9] :: 5.15
C=CC(=O)N1CCN(Cc2ccc([C@H](C)Nc3ncc4c(n3)N([C@H](C)CO)C(=O)OC4)cc2)CC1 [Example 11] :: 5.10

Attention now turns to another entry.
Q) Which pIC50 is reported for this compound? C=CC(=O)N1CCN(Cc2ccc([C@H](C)Nc3ncc4c(n3)N(C(C)C)C(=O)OC4)cc2)CC1 [Example 1]
A) 5.42

---

- target.system: IDH2/R172K (Homo sapiens, UniProt P48735, R172K)
- Construct: His-tag (N)
- protocol.notes: Biochemical assay for IDH2 R172K mutant enzyme (2HG by RapidFire MS)
- test.conditions: mean ± standard deviation of the mean; 90 minutes reaction
- Procedure: IDH1-R132H, IDH1-R132C, IDH2-R172K and IDH2-R140Q mutant enzymes catalyze the conversion of αKG to 2HG. 2HG is analyzed using in-line solid phase extraction and mass spectrometry. […] IDH1 mutant (R132H and R132C) and IDH2 mutant (R140Q and R172K) proteins containing N-terminal His-tag are expressed in E. coli and purified using nickel affinity chromatography. […] The 2HG signal detected is transformed into an analyte concentration using a calibration curve generated using known 2HG concentrations. […]
pIC50: −log10 of the molar value.
The threshold is inclusive: pIC50 of exactly 5 counts as t; values below receive f.

Some entries whose results are on file:
C=CC(=O)N1CC(COc2ccc([C@H](C)Nc3ncc4c(n3)N(C(C)C)C(=O)OC4)cc2)C1 :: t
C=CC(=O)N1CCN(c2ccc([C@H](C)Nc3ncc4c(n3)N(C(C)C)C(=O)OC4)cc2)CC1 :: f
C=CC(=O)N1CC(N(C)Cc2ccc([C@H](C)Nc3ncc4c(n3)N(CC)C(=O)OC4)cc2)C1 :: t

Here is another molecule to look at.
Q) Exam item: decide whether the reported pIC50 for C=CC(=O)N1CCN(Cc2ccc([C@H](C)Nc3ncc4c(n3)N(CC)C(=O)OC4)cc2)CC1 is at least 5.
A) t
